The measured values listed here are drawn from ChEMBL document CHEMBL5303304.

- Test system: U2OS
- TEST_DETAILS: Incucyte cell viability with U2OS; note: unitless GR value; below 1 slowed growth and below 0 cell loss
- Format: toxicity, cell-based
- EXPERIMENTAL_SETUP: human, 24 h, 10 µM, compound concentration 10 uM, replicate number 2
So basically: Growth Rate at 0.8 or higher? That is Yes. Lower than 0.8? That is No.

The examples below pair each entry with its known result.
CC1(C)C(=O)N([C@H]2CCc3c(O)cccc32)c2nc(Nc3cccc(CN4CCCC4)c3)ncc21 :: No
C=CC[C@@H]1/C=C(\C)C[C@H](C)C[C@H](OC)[C@H]2O[C@@](O)(C(=O)C(=O)N3CCCC[C@H]3C(=O)O[C@H](/C(C)=C/[C@@H]3CC[C@@H](O)[C@H](OC)C3)[C@H](C)[C@@H](O)CC1=O)[C@H](C)C[C@@H]2OC.O [TACROLIMUS] :: Yes
C[C@@H](C(N)=O)[C@H](N)c1nc2cc(C(C)(C)C)ccc2[nH]1 [PF-06305591] :: Yes
CN(C)CCCNc1ccnc(Nc2cccc(Cl)c2)n1 :: No
O=C(Nc1ccnc(NC(=O)C2CC2)c1)c1c(Cl)cccc1Cl :: Yes

Q) Tell me whether Growth Rate is at least 0.8 here: CN(C)C/C=C/C(=O)Nc1cccc(S(=O)(=O)N2CCC(NC(=O)c3n[nH]cc3NC(=O)c3c(Cl)cc(Cl)cc3Cl)CC2)c1
A) No

Q) Determine whether this molecule has Growth Rate no lower than 0.8: Fc1ccc(-c2c3cccc(C(F)(F)F)c3nn2Cc2ccc(F)cc2Cl)cc1 [LXR-623]
A) Yes

Q) Check if Growth Rate >= 0.8 (inclusive). Item: Cc1ccc(-n2nc(C(C)(C)C)cc2NC(=O)Nc2ccc(OCCN3CCOCC3)c3ccccc23)cc1 [DORAMAPIMOD]
A) No

Q) Answer whether Growth Rate of O=C(Nc1ccc(-n2nc(C(F)(F)F)cc2C(F)(F)F)cc1)c1ccncc1F is greater than or equal to 0.8.
A) No

Q) Reported Growth Rate at or above 0.8? COc1cc(C(=O)NCCOCCOCCOCC(=O)N[C@H](C(=O)N2C[C@H](O)C[C@H]2C(=O)NCc2ccc(-c3scnc3C)cc2)C(C)(C)C)ccc1Nc1ncc(C(F)(F)F)c(Oc2cccc3c2C(=O)CC3)n1
A) No
